assay comment: Pharmacokinetics and biodistribution in mice after i.p. administration
Assay type: in vivo, Swiss nude mice
test settings: mouse, ip, 20 mg/kg; celecoxib, i.p. mice, plasma
measure name: MRT (h)
// units = h; emit number, no label

Find the recorded MRT belonging to Cc1ccc(-c2cc(C(F)(F)F)nn2-c2ccc(S(N)(=O)=O)cc2)cc1 and report it.
2.9

---

assay comment: Pharmacokinetics and biodistribution in mice after i.p. administration
Format: in vivo, Swiss nude mice
test settings: mouse, ip, 20 mg/kg; celecoxib, i.p. mice, kidney
measure name: Tmax (h)
// units = h; emit number, no label

Find the recorded Tmax belonging to Cc1ccc(-c2cc(C(F)(F)F)nn2-c2ccc(S(N)(=O)=O)cc2)cc1 and report it.
2

These entries and their values trace back to patent US20260315596A1.
